- tested.target: RORγt-LBD (Homo sapiens)
- Sequence (P51449 269-508 limits assumed, species assumed): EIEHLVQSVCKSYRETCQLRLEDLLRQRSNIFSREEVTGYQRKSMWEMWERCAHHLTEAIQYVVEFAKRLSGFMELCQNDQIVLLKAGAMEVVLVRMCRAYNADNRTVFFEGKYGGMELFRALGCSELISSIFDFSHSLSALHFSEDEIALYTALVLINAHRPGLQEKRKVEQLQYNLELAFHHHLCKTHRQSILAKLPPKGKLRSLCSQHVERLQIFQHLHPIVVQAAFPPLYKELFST
- test: Time-resolved fluorescence resonance energy-transfer assay (TR-FRET), co-activator peptide recruitment
- Assay type: biochemical
- Parameters: unit not given here
- condition.description: upper activation limit; His-RORγt-LBD, SRC peptide
Values of TR-FRET Biochemical Amax greater than or equal to 0.8 map to met; values below map to not met.

Is it the case that "O=S(=O)(c1cccc(C(F)(F)F)c1)N1C[C@@H]2CN(C[C@@H](O)CO)CCN2c2ccc(/C=C/c3c(Cl)cccc3C(F)(F)F)cc21" has TR-FRET Biochemical Amax reaching or exceeding 0.8? met

Input "CN1c2ccc(C3=CC(C)(C)OC(C)(C)C3)cc2N(S(=O)(=O)c2cccc(C(F)(F)F)c2)C[C@@H]1CCC(=O)O" not met

Item: "CC(C)(C(=O)O)N1CCN2c3ccc(-c4cc(F)cc(OC(F)F)c4)cc3N(S(=O)(=O)c3cccc(C(F)(F)F)c3)C[C@@H]2C1" not met

Please do the same for "C/C(=C\c1ccc2c(c1)N(S(=O)(=O)c1cccc(C(F)(F)F)c1)C[C@@H]1CN(S(N)(=O)=O)CCN21)c1c(F)cccc1Cl" as well. met
